The measured values listed here are drawn from ChEMBL document CHEMBL4346746.

Overview of recorded IC50 for various compounds
Target: Isocitrate dehydrogenase [NADP] cytoplasmic (Homo sapiens, UniProt O75874)
Sequence (O75874 whole entry): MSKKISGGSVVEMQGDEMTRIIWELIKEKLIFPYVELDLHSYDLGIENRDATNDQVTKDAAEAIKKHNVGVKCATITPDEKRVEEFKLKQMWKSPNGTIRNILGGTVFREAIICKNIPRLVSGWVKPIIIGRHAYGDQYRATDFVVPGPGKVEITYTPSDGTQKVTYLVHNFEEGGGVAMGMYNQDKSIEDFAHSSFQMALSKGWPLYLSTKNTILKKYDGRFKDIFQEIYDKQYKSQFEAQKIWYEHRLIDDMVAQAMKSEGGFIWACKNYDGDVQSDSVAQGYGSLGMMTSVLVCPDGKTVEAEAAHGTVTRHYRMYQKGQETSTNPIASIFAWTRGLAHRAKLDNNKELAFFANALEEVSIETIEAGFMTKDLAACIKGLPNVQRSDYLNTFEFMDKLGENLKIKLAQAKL
Assay: Inhibition of recombinant human IDH1 expressed in Escherichia coli using isocitrate as substrate incubated for 30 mins followed by substrate addition

The following compounds have reported results that may help.
[[record]]
compound = "O=C1NC[C@@H](COc2cc3[nH]c(C(=O)N[C@H](CO)c4ccc(C(=O)O)cc4)cc3cc2Cl)O1"
metric_name = "IC50"
reported_value = "> 10 µM"

[[record]]
compound = "Cn1c(C(=O)NC2(c3ccc([C@@H](O)c4cccnc4)cc3)COC2)cc2c(Cl)c(Cl)ccc21"
metric_name = "IC50"
reported_value = "> 10 µM"


Proceed to the following item.
Query: May I ask what IC50 has been recorded for Cn1c(C(=O)NC2(c3ccc(C(C(=O)O)c4cccnc4)cc3)COC2)cc2c(Cl)c(Cl)ccc21 (racemic) ?
Response: > 10 µM
